target: recombinant human 5-HT5A receptor (Homo sapiens, UniProt P47898); construct: membranes; assay: [3H]LSD radioligand binding assay; conditions: [3H]LSD (approximately 1 nM); membranes from transiently expressed 5-HT5A receptors in HEK-EBNA cells; Ki by Cheng-Prussoff equation
Sequence (P47898 whole entry): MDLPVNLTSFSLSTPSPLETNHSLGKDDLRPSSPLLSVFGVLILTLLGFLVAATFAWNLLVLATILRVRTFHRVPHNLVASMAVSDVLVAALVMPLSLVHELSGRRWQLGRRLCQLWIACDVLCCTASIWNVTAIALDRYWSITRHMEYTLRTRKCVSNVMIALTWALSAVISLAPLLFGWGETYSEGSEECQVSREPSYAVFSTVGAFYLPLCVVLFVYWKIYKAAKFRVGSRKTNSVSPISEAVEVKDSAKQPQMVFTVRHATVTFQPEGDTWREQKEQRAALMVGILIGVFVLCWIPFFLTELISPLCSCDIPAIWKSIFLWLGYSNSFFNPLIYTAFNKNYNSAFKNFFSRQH
So basically, the class depends on measured Ki, and the ranges are lo: < 40 nM; med: ≥ 40 nM and < 60 nM; hi: ≥ 60 nM

COMPOUND: COc1ccccc1OCCNC1=Nc2ccc(C)cc2CN1
TESTED TARGET: recombinant human 5-HT5A receptor (Homo sapiens, UniProt P47898)
CLASS: lo
--
COMPOUND: Clc1ccc2c(c1Cl)CNC(NCCOc1ccccc1)=N2 [Example 14, hydroiodide]
TESTED TARGET: recombinant human 5-HT5A receptor (Homo sapiens, UniProt P47898)
CLASS: hi
--
COMPOUND: COc1cccc(OCCNC2=Nc3ccccc3CN2)c1
TESTED TARGET: recombinant human 5-HT5A receptor (Homo sapiens, UniProt P47898)
CLASS: hi
--
COMPOUND: COc1cccc(OC)c1OCCNC1=Nc2ccccc2CN1
TESTED TARGET: recombinant human 5-HT5A receptor (Homo sapiens, UniProt P47898)
CLASS: hi
--
COMPOUND: CSc1ccccc1OCCNC1=Nc2ccccc2CN1
TESTED TARGET: recombinant human 5-HT5A receptor (Homo sapiens, UniProt P47898)
CLASS: lo
--
COMPOUND: COc1cccc(F)c1OCCNC1=Nc2ccccc2CN1
TESTED TARGET: recombinant human 5-HT5A receptor (Homo sapiens, UniProt P47898)
CLASS: med
--
COMPOUND: Clc1ccccc1OCCNC1=Nc2ccccc2CN1
TESTED TARGET: recombinant human 5-HT5A receptor (Homo sapiens, UniProt P47898)
CLASS: lo
--
COMPOUND: Fc1ccccc1OCCNC1=Nc2ccccc2CN1
TESTED TARGET: recombinant human 5-HT5A receptor (Homo sapiens, UniProt P47898)
CLASS: lo
--
COMPOUND: COc1ccccc1OCCNC1=Nc2ccccc2CN1
TESTED TARGET: recombinant human 5-HT5A receptor (Homo sapiens, UniProt P47898)
CLASS: lo
--
COMPOUND: Cc1cccc(OCCNC2=Nc3ccccc3CN2)c1
TESTED TARGET: recombinant human 5-HT5A receptor (Homo sapiens, UniProt P47898)
CLASS: hi
--
COMPOUND: CC1NC(NCCOc2ccccc2)=Nc2ccccc21 (stereo not shown) [Example 11, hydroiodide]
TESTED TARGET: recombinant human 5-HT5A receptor (Homo sapiens, UniProt P47898)
CLASS: med
--
COMPOUND: Fc1ccc(Br)c(OCCNC2=Nc3ccccc3CN2)c1
TESTED TARGET: recombinant human 5-HT5A receptor (Homo sapiens, UniProt P47898)
CLASS: hi
--
COMPOUND: Fc1cccc2c1CNC(NCCOc1ccccc1Cl)=N2
TESTED TARGET: recombinant human 5-HT5A receptor (Homo sapiens, UniProt P47898)
CLASS: med
--
COMPOUND: Brc1ccccc1OCCNC1=Nc2ccccc2CN1
TESTED TARGET: recombinant human 5-HT5A receptor (Homo sapiens, UniProt P47898)
CLASS: lo
--
COMPOUND: Clc1cccc(OCCNC2=Nc3ccccc3CN2)c1
TESTED TARGET: recombinant human 5-HT5A receptor (Homo sapiens, UniProt P47898)
CLASS: hi
--
COMPOUND: Cc1ccc2c(c1)CNC(NCCOc1ccccc1)=N2
TESTED TARGET: recombinant human 5-HT5A receptor (Homo sapiens, UniProt P47898)
CLASS: lo
--
COMPOUND: N#Cc1ccccc1OCCNC1=Nc2ccccc2CN1
TESTED TARGET: recombinant human 5-HT5A receptor (Homo sapiens, UniProt P47898)
CLASS: med
--
COMPOUND: Cc1cccc2c1CNC(NCCOc1ccccc1)=N2 [Example 10, hydroiodide]
TESTED TARGET: recombinant human 5-HT5A receptor (Homo sapiens, UniProt P47898)
CLASS: med
--
COMPOUND: CCOc1ccccc1OCCNC1=Nc2ccccc2CN1
TESTED TARGET: recombinant human 5-HT5A receptor (Homo sapiens, UniProt P47898)
CLASS: lo
--
COMPOUND: Fc1cccc2c1CNC(NCCOc1ccccc1)=N2 [Example 7, hydroiodide]
TESTED TARGET: recombinant human 5-HT5A receptor (Homo sapiens, UniProt P47898)
CLASS: lo
--
COMPOUND: Cc1ccc2c(c1)CNC(NCCOc1ccccc1Cl)=N2
TESTED TARGET: recombinant human 5-HT5A receptor (Homo sapiens, UniProt P47898)
CLASS: med
